Reference source for all entries: patent US20040006236A1

tested on: cell-surface Mac-1 adhesion to immobilized fibrinogen (HL-60 cells); assay: Mac-1/Fibrinogen cell-based screening assay; set-up: species or system human; conditions: Homo sapiens, HL-60, HL-60 cells; read-out: Mac-1/Fgn Cell based Assay IC50
quantity: log10(IC50) (log10 of the value in nM)

>>> quantitativereadout("O=C(NCc1cccc(O)c1)c1ccc(C(=O)N[C@@H](CNC(=O)c2ccoc2)C(=O)O)c(Cl)c1 [Example 259]")
1.80
>>> quantitativereadout("O=C(NCc1cccc(O)c1)c1ccc(C(=O)N[C@@H](CNC(=O)[C@@H]2CCCN2)C(=O)O)c(Cl)c1 [Example 196]")
1.80
>>> quantitativereadout("N[C@@H](Cc1ccc(OCc2c(Cl)cccc2Cl)cc1)C(=O)NC[C@H](NC(=O)c1ccc(C(=O)NCc2cccc(O)c2)cc1Cl)C(=O)O [Example 273]")
3.24
>>> quantitativereadout("COc1ccccc1C(=O)NC[C@H](NC(=O)c1ccc(C(=O)NCc2cccc(O)c2)cc1Cl)C(=O)O [Example 134]")
2.34
>>> quantitativereadout("O=C(NCc1cccc(O)c1)c1ccc(C(=O)N[C@@H](CNC(=O)c2ccsc2)C(=O)O)c(Cl)c1 [Example 161]")
1.23
>>> quantitativereadout("CC(=O)Oc1ccccc1C(=O)NC[C@H](NC(=O)c1ccc(C(=O)NCc2cccc(O)c2)cc1Cl)C(=O)O [Example 117]")
2.12
>>> quantitativereadout("O=C(/C=C/c1cccs1)NC[C@H](NC(=O)c1ccc(C(=O)NCc2cccc(O)c2)cc1Cl)C(=O)O [Example 116]")
1.93

---

target: LFA-1 binding to immobilized ICAM-1 (Homo sapiens, UniProt P05107+P20701); construct: made in house; host or cells: transfected 293 cells (LFA-1); test: LFA-1/ICAM-1 protein-protein assay (solid-phase ELISA); settings: read-out: LFA-1/ICAM-1 Protein-Protein Assay IC50
Sequence (P20701 26-1170): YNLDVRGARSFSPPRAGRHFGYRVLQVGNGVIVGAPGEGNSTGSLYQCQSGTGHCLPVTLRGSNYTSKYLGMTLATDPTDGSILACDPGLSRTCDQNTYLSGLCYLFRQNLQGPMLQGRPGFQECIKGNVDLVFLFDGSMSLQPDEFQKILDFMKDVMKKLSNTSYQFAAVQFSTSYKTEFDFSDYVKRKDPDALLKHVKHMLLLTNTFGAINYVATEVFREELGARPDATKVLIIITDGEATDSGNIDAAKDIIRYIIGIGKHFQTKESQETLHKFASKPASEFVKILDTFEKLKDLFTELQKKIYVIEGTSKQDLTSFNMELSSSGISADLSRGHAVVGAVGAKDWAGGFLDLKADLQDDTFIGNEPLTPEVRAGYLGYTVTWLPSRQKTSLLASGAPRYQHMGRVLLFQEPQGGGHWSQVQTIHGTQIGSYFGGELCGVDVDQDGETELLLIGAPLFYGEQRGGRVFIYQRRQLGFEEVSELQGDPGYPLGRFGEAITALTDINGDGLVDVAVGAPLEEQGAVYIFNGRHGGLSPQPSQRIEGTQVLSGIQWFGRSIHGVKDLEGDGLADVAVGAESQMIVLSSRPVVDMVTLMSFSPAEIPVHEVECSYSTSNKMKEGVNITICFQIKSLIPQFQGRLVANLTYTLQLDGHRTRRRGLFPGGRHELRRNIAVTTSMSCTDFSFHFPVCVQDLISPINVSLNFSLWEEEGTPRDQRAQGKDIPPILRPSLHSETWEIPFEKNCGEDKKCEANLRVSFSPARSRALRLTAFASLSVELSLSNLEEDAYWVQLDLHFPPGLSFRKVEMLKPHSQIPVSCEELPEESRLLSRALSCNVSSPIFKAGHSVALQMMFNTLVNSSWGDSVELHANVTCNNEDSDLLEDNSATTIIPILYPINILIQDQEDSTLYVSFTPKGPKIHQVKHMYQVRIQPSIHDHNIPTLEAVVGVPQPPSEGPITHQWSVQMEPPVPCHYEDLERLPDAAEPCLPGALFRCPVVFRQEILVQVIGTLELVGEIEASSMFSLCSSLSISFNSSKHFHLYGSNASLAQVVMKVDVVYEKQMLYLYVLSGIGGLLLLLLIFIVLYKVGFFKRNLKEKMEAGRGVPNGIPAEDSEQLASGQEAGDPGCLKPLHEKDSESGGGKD
Sequence (P05107 23-769): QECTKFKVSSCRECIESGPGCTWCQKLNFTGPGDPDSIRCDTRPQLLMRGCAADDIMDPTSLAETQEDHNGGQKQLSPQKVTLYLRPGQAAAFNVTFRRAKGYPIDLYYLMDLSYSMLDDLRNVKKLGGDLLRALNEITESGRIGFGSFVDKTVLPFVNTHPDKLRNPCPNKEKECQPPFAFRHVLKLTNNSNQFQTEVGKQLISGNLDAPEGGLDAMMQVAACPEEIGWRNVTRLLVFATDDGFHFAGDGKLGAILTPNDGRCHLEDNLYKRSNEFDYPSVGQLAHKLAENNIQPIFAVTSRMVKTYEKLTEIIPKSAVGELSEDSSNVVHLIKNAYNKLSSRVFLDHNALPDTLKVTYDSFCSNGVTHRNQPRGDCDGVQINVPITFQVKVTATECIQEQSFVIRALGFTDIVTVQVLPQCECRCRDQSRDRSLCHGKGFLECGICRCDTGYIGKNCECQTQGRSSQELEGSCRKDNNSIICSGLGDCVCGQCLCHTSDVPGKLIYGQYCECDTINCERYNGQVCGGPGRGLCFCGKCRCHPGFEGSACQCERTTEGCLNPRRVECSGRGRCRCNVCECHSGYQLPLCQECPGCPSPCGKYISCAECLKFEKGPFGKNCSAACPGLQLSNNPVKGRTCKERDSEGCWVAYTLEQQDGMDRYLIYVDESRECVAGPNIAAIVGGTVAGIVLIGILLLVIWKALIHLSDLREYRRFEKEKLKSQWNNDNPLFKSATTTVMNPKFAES
Structures can show the parent of a compound that is named as a salt.
Please assign NO whenever IC50 is at or above 2 nM, and YES whenever it is below.

>>> classification("O=C(NCc1cccc(O)c1)c1ccc(C(=O)N[C@@H](CNC(=O)c2ccccc2)C(=O)O)c(Cl)c1 [Example 304, sodium salt]")
"YES"
>>> classification("CNCC(=O)NC[C@H](NC(=O)c1ccc(C(=O)NCc2cccc(O)c2)cc1Cl)C(=O)O")
"NO"
>>> classification("O=C(NC[C@H](NC(=O)c1ccc(C(O)CCc2cccc(O)c2)cc1Cl)C(=O)O)c1cccs1 (mixture of isomers)")
"YES"
>>> classification("Cc1cc(C(=O)NCc2cccc(O)c2)cc(Cl)c1C(=O)N[C@@H](CNC(=O)c1ccsc1)C(=O)O")
"YES"
>>> classification("O=C(NCc1cccc(O)c1)c1cc(Cl)c(C(=O)N[C@@H](CNC(=O)c2sccc2Br)C(=O)O)c(Cl)c1")
"YES"
>>> classification("O=C(NCc1cccc(O)c1)c1ccc(C(=O)N[C@@H](CNC(=O)c2ccno2)C(=O)O)c(Cl)c1")
"YES"
>>> classification("O=C(NCc1cccc(O)c1)c1ccc(C(=O)N[C@@H](CNC(=O)c2cccc3ccccc23)C(=O)O)c(Cl)c1")
"NO"

---

Biological target: LFA-1 binding to immobilized ICAM-1 (Homo sapiens, UniProt P05107+P20701)
Construct: made in house; host or cells: transfected 293 cells (LFA-1)
Assay: LFA-1/ICAM-1 protein-protein assay (solid-phase ELISA)
Conditions: read-out: LFA-1/ICAM-1 Protein-Protein Assay IC50
Experimental: (a) LFA-1/ICAM-1 screening test: LFA-1/ICAM-1 antagonist activity, defined as the ability of compounds of the invention to block LFA-1 binding to immobilized ICAM-1, was quantitated using a solid-phase ELISA. Typically, fusion protein consisting of the entire extracellular domain of human ICAM-1 and the Fc domain of human IgG (5dICAM-Ig) was coated onto 96-well microtiter plates (0.15 μg in 100 μL PBS) overnight at 4° C. […] The plates were then read at 450 nm. […]
pIC50: −log10 of the molar value.
Reported pIC50 values for a set of molecules
quantity: pIC50

>>> quantitativereadout("O=C(NCc1cccc(O)c1)c1ccc(C(=O)N[C@@H](CNC(=O)[C@@H]2CCCN2)C(=O)O)c(Cl)c1")
8.55
>>> quantitativereadout("CC(C)C[C@H](N)C(=O)NC[C@H](NC(=O)c1ccc(C(=O)NCc2cccc(O)c2)cc1Cl)C(=O)O")
8.37
>>> quantitativereadout("Cc1cc(C(=O)NCc2cccc(O)c2)cc(C)c1C(=O)N[C@@H](CNC(=O)c1cccs1)C(=O)O")
8.85
>>> quantitativereadout("O=C(NCc1cccc(O)c1)c1ccc(C(=O)N[C@@H](CNC(=O)c2cccc(Br)c2)C(=O)O)c(Cl)c1")
8.80

---

Reported log10 of IC50 values for a set of compounds
target: ICAM-1 binding to immobilized Mac-1 (Homo sapiens, UniProt P05107+P11215); construct: made in house; host or cells: transfected 293 cells (Mac-1); assay: Mac-1/ICAM-1 screening assay (solid-phase ELISA); details: read-out: Mac-1/ICAM IC50
Sequence (P05107 23-769, other chains not shown): as the sequence (P05107 23-769) above
quantity: log10 of IC50 (log10 of the value in nM)

>>> quantitativereadout("O=C(NCc1cccc(O)c1)c1ccc(C(=O)N[C@@H](CNC(=O)c2cccs2)C(=O)O)c(Cl)c1")
0.81
>>> quantitativereadout("O=C(NCc1cccc(O)c1)c1ccc(C(=O)N[C@@H](CNC(=O)c2ccccc2)C(=O)O)c(Cl)c1")
1.49
>>> quantitativereadout("O=C(NCc1cccc(O)c1)c1ccc(C(=O)N[C@@H](CNC(=O)c2cc([N+](=O)[O-])[nH]n2)C(=O)O)c(Cl)c1")
2.00
>>> quantitativereadout("O=C(NC[C@H](NC(=O)c1c(Cl)cccc1Cl)C(=O)O)c1ccc(Br)s1")
1.91
>>> quantitativereadout("O=C(NC[C@H](NC(=O)c1ccc(-n2nnnc2NCc2cccc(O)c2)cc1Cl)C(=O)O)c1cccs1")
1.88
>>> quantitativereadout("O=C(NCc1cccc2[nH]ccc12)c1ccc(C(=O)N[C@@H](CNC(=O)c2cccs2)C(=O)O)c(Cl)c1")
1.35

---

Reported IC50 values for a set of compounds
Target: LFA-1 binding to immobilized ICAM-1 (Homo sapiens, UniProt P05107+P20701)
Construct: made in house; host or cells: transfected 293 cells (LFA-1)
Assay: LFA-1/ICAM-1 protein-protein assay (solid-phase ELISA)
Conditions: LFA-1/ICAM-1 Protein-Protein Assay IC50
Description: (a) LFA-1/ICAM-1 screening test: LFA-1/ICAM-1 antagonist activity, defined as the ability of compounds of the invention to block LFA-1 binding to immobilized ICAM-1, was quantitated using a solid-phase ELISA. Typically, fusion protein consisting of the entire extracellular domain of human ICAM-1 and the Fc domain of human IgG (5dICAM-Ig) was coated onto 96-well microtiter plates (0.15 μg in 100 μL PBS) overnight at 4° C. […] The plates were then read at 450 nm. […]
quantity: IC50 (nM)

>>> quantitativereadout("O=C(Cc1ccc([N+](=O)[O-])cc1[N+](=O)[O-])NC[C@H](NC(=O)c1ccc(C(=O)NCc2cccc(O)c2)cc1Cl)C(=O)O")
2.3
>>> quantitativereadout("O=C(NCc1cccc(O)c1)c1ccc(C(=O)N[C@@H](CNC(=O)c2cc([N+](=O)[O-])cc([N+](=O)[O-])c2)C(=O)O)c(Cl)c1")
4.2

---

Reported pIC50 values for a set of compounds
molecular target: LFA-1 binding to immobilized ICAM-1 (Homo sapiens, UniProt P05107+P20701); construct: made in house; host or cells: transfected 293 cells (LFA-1); assay: LFA-1/ICAM-1 protein-protein assay (solid-phase ELISA); conditions: read-out: LFA-1/ICAM-1 Protein-Protein Assay IC50
pIC50: −log10 of the molar value.
quantity: pIC50

>>> quantitativereadout("O=C(NCc1cccc(O)c1)c1ccc(C(=O)N[C@@H](CNC(=O)[C@@H]2Cc3c([nH]c4ccccc34)CN2)C(=O)O)c(Cl)c1")
8.47
>>> quantitativereadout("O=C(NCc1cccc(O)c1)c1ccc(C(=O)N[C@@H](CNC(=O)c2ccccc2Br)C(=O)O)c(Cl)c1")
8.31
>>> quantitativereadout("O=C(CC1CCCC1)NC[C@H](NC(=O)c1ccc(C(=O)NCc2cccc(O)c2)cc1Cl)C(=O)O")
8.68
>>> quantitativereadout("Cc1cccc(C(=O)NC[C@H](NC(=O)c2c(Cl)cccc2Cl)C(=O)O)n1")
7.68
>>> quantitativereadout("NS(=O)(=O)c1ccc(C(=O)NC[C@H](NC(=O)c2ccc(C(=O)NCc3cccc(O)c3)cc2Cl)C(=O)O)cc1")
8.52
>>> quantitativereadout("CN(C)c1cccc(C(=O)NC[C@H](NC(=O)c2ccc(C(=O)NCc3cccc(O)c3)cc2Cl)C(=O)O)c1")
8.66
>>> quantitativereadout("O=C(Cc1cccs1)NC[C@H](NC(=O)c1ccc(C(=O)NCc2cccc(O)c2)cc1Cl)C(=O)O")
9.00
>>> quantitativereadout("O=C(NCc1cccc(O)c1)c1ccc(C(=O)N[C@@H](CNC(=O)c2cnc3ccccc3c2)C(=O)O)c(Cl)c1")
7.92
>>> quantitativereadout("O=C(NCc1cccc(O)c1)c1ccc(C(=O)N[C@@H](CNC(=O)[C@H](CC2CCCCC2)n2cccc2)C(=O)O)c(Cl)c1")
8.43
>>> quantitativereadout("O=C(NCc1cccc(O)c1)c1ccc(C(=O)N[C@@H](CNC(=O)C2CCNCC2)C(=O)O)c(Cl)c1")
8.32
>>> quantitativereadout("O=C(NCc1ccc(C(=O)N[C@@H](CNC(=O)c2ccccc2)C(=O)O)c(Cl)c1)c1ccc2[nH]ccc2c1")
7.96
>>> quantitativereadout("COC(=O)c1cccc(C(=O)NC[C@H](NC(=O)c2ccc(C(=O)NCc3cccc(O)c3)cc2Cl)C(=O)O)c1")
8.70
>>> quantitativereadout("O=C(NC[C@H](NC(=O)c1ccc(-n2nnnc2NCc2cccc(O)c2)cc1Cl)C(=O)O)c1cccs1")
8.59
>>> quantitativereadout("O=C(NCc1cccc(O)c1)c1ccc(C(=O)N[C@@H](CNC(=O)[C@@H]2CSCN2)C(=O)O)c(Cl)c1")
8.54
>>> quantitativereadout("Cc1cccc(C(=O)NC[C@H](NC(=O)c2c(Cl)cc(C(=O)NCc3cccc(O)c3)cc2Cl)C(=O)O)c1")
8.92
>>> quantitativereadout("O=C(NCc1cccc(O)c1)c1ccc(C(=O)N[C@@H](CNC(=O)c2cc3ccccc3o2)C(=O)O)c(Cl)c1")
8.47
>>> quantitativereadout("O=C(NCc1cccc(O)c1)c1ccc(C(=O)N[C@@H](CNC(=O)c2cc3ccccc3s2)C(=O)O)c(Cl)c1")
8.59
>>> quantitativereadout("Cc1cc(C(=O)NCc2cccc(O)c2)ccc1C(=O)N[C@@H](CNC(=O)c1ccccc1)C(=O)O")
8.82
>>> quantitativereadout("Cc1cc(C(=O)NCc2cccc(O)c2)cc(Cl)c1C(=O)N[C@@H](CNC(=O)c1cc(O)cc(O)c1)C(=O)O")
9.52
>>> quantitativereadout("COc1cc(C(=O)NC[C@H](NC(=O)c2ccc(C(=O)NCc3cccc(O)c3)cc2Cl)C(=O)O)nc2ccccc12")
7.82
>>> quantitativereadout("O=C(NCc1cccc(O)c1)c1ccc(C(=O)N[C@@H](CNC(=O)c2csnn2)C(=O)O)c(Cl)c1")
9.15
>>> quantitativereadout("O=C(NCc1cccc(O)c1)c1ccc(C(=O)N[C@@H](CNC(=O)c2c[nH]c(=O)[nH]c2=O)C(=O)O)c(Cl)c1")
8.15
>>> quantitativereadout("O=C(NCc1ccc(C(=O)N[C@@H](CNC(=O)c2ccccc2)C(=O)O)c(Cl)c1)c1cccc(O)c1")
8.11
>>> quantitativereadout("O=C(NCc1cccc(O)c1)c1ccc(C(=O)N[C@@H](CNC(=O)C2CC2)C(=O)O)c(Cl)c1")
8.72
>>> quantitativereadout("Cc1cc(C(=O)NCc2cccc(O)c2)ccc1C(=O)N[C@@H](CNC(=O)c1cccs1)C(=O)O")
8.89
>>> quantitativereadout("O=C(NCc1cccc2[nH]ccc12)c1ccc(C(=O)N[C@@H](CNC(=O)c2ccoc2)C(=O)O)c(Cl)c1")
8.89
>>> quantitativereadout("O=C(NCc1cccc(O)c1)c1ccc(C(=O)N[C@@H](CNC(=O)c2cccs2)C(=O)O)c(Br)c1")
8.89
>>> quantitativereadout("Cc1cc(C(=O)N[C@H](C)c2cccc3ccccc23)ccc1C(=O)N[C@@H](CNC(=O)c1cccs1)C(=O)O")
8.59
